target: neuronal synaptic puncta in hippocampal/cortical cultures; test: Abeta binding assay, neurons (immunofluorescence of neurite puncta); set-up: species or system rat; conditions: compound before oligomers; read-out: IC50, Abeta binding, prevention
QUANTITY_KIND: IC50 (µM)
Numbers only here, please. The scale is µM.

Lab note: need IC50 for CC(C)=CC(C[C@H](C)c1ccc(C)cc1)NCC(C)C (stereo partly shown) on neuronal synaptic puncta in hippocampal/cortical cultures, anyone have it?
2.2

====

tested on: neuronal synaptic puncta in hippocampal/cortical cultures; test: Abeta binding assay, neurons (immunofluorescence of neurite puncta); design: species or system rat; conditions: 15 µM compound one hour prior to synthetic Abeta oligomers 0.5 µM
QUANTITY_KIND: prevention of binding of Abeta oligomers to neuronal cultures

Some compounds with known prevention of binding of Abeta oligomers to neuronal cultures results, for comparison:
> print(dat)
                                   compound                           measured.target  data.value
1  C[C@H](CCc1ccc(Cl)cc1)NCc1ccc(C(F)(F)F)cc1  neuronal synaptic puncta in hippocampal/cortical cultures      93%±4%
2  COc1cc(CCC(C)NCc2ccc(C(F)(F)F)cc2)ccc1O (stereo not shown)  neuronal synaptic puncta in hippocampal/cortical cultures      99%±7%
3  CC(C)=CC(C[C@H](C)c1ccc(C)cc1)NCC(C)C (stereo partly shown)  neuronal synaptic puncta in hippocampal/cortical cultures      93%±2%

Now for a further compound.
Query (compound): C[C@H](CCc1ccc(Cl)c(Cl)c1)NCc1ccc(C(F)(F)F)cc1 ; field requested: prevention of binding of Abeta oligomers to neuronal cultures
94%±4%
